Item-by-item account of Biodistribution: Salivary gland
- System: PSMA+ PC-3 PiP and PSMA− PC-3 flu tumors
- condition-summary: 24 h; co-injection 0.5 nmole YC-I-27
Show the value, then the unit it is measured in.

INSERT INTO results (molecule, test_system, quantity_measured, reported_value) VALUES
  ('O=C(O)CC[C@H](NC(=O)N[C@@H](CCCCN(Cc1ccc([125I])cc1)C(=O)CCCCNC(=O)CN1CCN(CC(=O)O)CCN(CC(=O)O)CCN(CC(=O)O)CC1)C(=O)O)C(=O)O [[^125I]VK-02-90]', 'PSMA+ PC-3 PiP and PSMA− PC-3 flu tumors', 'Biodistribution: Salivary gland', '0.02 ± 0.01 % injected dose/gram');

The value of Biodistribution: Salivary gland measured for the molecule O=C(O)CC[C@H](NC(=O)N[C@@H](CCC(=O)NCCc1ccc([125I])cc1)C(=O)O)C(=O)O [[^125I]HS-549] turned out to be 0.2 ± 0.1 % injected dose/gram

The value of Biodistribution: Salivary gland measured for the molecule O=C([O-])CN1CCN(CC(=O)[O-])CCN(CC(=O)NCCCCC(=O)N(CCCC[C@H](NC(=O)N[C@@H](CCC(=O)O)C(=O)O)C(=O)O)Cc2ccc([125I])cc2)CCN(CC(=O)[O-])CC1.[Lu+3] [[^125I]VK-02-90-Lu] turned out to be 0.02 ± 0.01 % injected dose/gram

The value of Biodistribution: Salivary gland measured for the molecule O=C([O-])CN1CCN(CC(=O)[O-])CCN(CC(=O)NCCCCC(=O)N(CCCC[C@H](NC(=O)N[C@@H](CCC(=O)O)C(=O)O)C(=O)O)Cc2ccc([211At])cc2)CCN(CC(=O)[O-])CC1.[Lu+3] [[^211At]VK-02-90-Lu] turned out to be 0 % injected dose/gram

###

- Tested on: PSMA+ PC-3 PiP and PSMA− PC-3 flu tumors
- condition-summary: 4 h; No CI
quantity-measured: Biodistribution: spleen (% injected dose/gram)
Numeric answer only, unit % injected dose/gram assumed.

Known results for compounds:
INSERT INTO assay_data (compound, quantity_measured, reported_value) VALUES
  ('O=C(O)CC[C@H](NC(=O)N[C@@H](CCC(=O)NCCc1ccc([125I])cc1)C(=O)O)C(=O)O [[^125I]HS-549]', 'Biodistribution: spleen', 2.7),
  ('O=C(O)CC[C@H](NC(=O)N[C@@H](CCCCN(Cc1ccc([125I])cc1)C(=O)CCCCNC(=O)CN1CCN(CC(=O)O)CCN(CC(=O)O)CCN(CC(=O)O)CC1)C(=O)O)C(=O)O [[^125I]VK-02-90]', 'Biodistribution: spleen', 4.7),
  ('O=C([O-])CN1CCN(CC(=O)[O-])CCN(CC(=O)NCCCCC(=O)N(CCCC[C@H](NC(=O)N[C@@H](CCC(=O)O)C(=O)O)C(=O)O)Cc2ccc([211At])cc2)CCN(CC(=O)[O-])CC1.[Lu+3] [[^211At]VK-02-90-Lu]', 'Biodistribution: spleen', 0);

The value of Biodistribution: spleen measured for the compound O=C([O-])CN1CCN(CC(=O)[O-])CCN(CC(=O)NCCCCC(=O)N(CCCC[C@H](NC(=O)N[C@@H](CCC(=O)O)C(=O)O)C(=O)O)Cc2ccc([125I])cc2)CCN(CC(=O)[O-])CC1.[Lu+3] [[^125I]VK-02-90-Lu] turned out to be 0.6

###

- Test system: PSMA+ PC-3 PiP and PSMA− PC-3 flu tumors
- condition-summary: 1 h; co-injection 0.5 nmole YC-I-27
quantity-measured: Biodistribution: Blood (% injected dose/gram)
Numeric answer only, unit % injected dose/gram assumed.

Known results for compounds:
INSERT INTO assay_data (compound, quantity_measured, reported_value) VALUES
  ('O=C([O-])CN1CCN(CC(=O)[O-])CCN(CC(=O)NCCCCC(=O)N(CCCC[C@H](NC(=O)N[C@@H](CCC(=O)O)C(=O)O)C(=O)O)Cc2ccc([211At])cc2)CCN(CC(=O)[O-])CC1.[Lu+3] [[^211At]VK-02-90-Lu]', 'Biodistribution: Blood', 0.5),
  ('O=C(O)CC[C@H](NC(=O)N[C@@H](CCC(=O)NCCc1ccc([125I])cc1)C(=O)O)C(=O)O [[^125I]HS-549]', 'Biodistribution: Blood', 2.6),
  ('O=C(O)CC[C@H](NC(=O)N[C@@H](CCCCN(Cc1ccc([125I])cc1)C(=O)CCCCNC(=O)CN1CCN(CC(=O)O)CCN(CC(=O)O)CCN(CC(=O)O)CC1)C(=O)O)C(=O)O [[^125I]VK-02-90]', 'Biodistribution: Blood', 0.45);

Consider the additional compound presented here.
For the compound O=C([O-])CN1CCN(CC(=O)[O-])CCN(CC(=O)NCCCCC(=O)N(CCCC[C@H](NC(=O)N[C@@H](CCC(=O)O)C(=O)O)C(=O)O)Cc2ccc([125I])cc2)CCN(CC(=O)[O-])CC1.[Lu+3] [[^125I]VK-02-90-Lu] , the measured Biodistribution: Blood on PSMA+ PC-3 PiP and PSMA− PC-3 flu tumors was 1.1
